# measured on: HLA-A*26:01
# test method notes: IEDB peptide-MHC binding, purified MHC/direct/fluorescence; filed as Kd, often an IC50 or EC50 that approximates it; bounds were set here for any values at or beyond the usual limits of such assays
# test settings: source organism: Corynebacterium glutamicum
observation type: Kd

Which Kd value belongs to FAAAAARTL ? ≥ 20 µM

* * *

# measured on: HLA-B*44:02
# test method notes: IEDB peptide-MHC binding, purified MHC/competitive/radioactivity; filed as Kd, often an IC50 or EC50 that approximates it; bounds were set here for any values at or beyond the usual limits of such assays
# test settings: source organism: Lymphocytic choriomeningitis virus (strain Traub)
observation type: Kd

Which Kd value belongs to EEKGISGTS ? ≥ 34.1 µM
